- protocol: CCTE_Harrill_HTTr_Apoptosis_PRF_DMEM_24hr: (Pilot) CCTE's 24-hour Apoptosis Assessment for the High-Throughput Transcriptomics (HTTr) Platform, in MCF-7 cells cultured in phenol red-free DMEM + 10% charcoal-stripped fetal bovine serum, Harrill Lab (AID 2283986)
The source made the active and inactive calls. How the source made its calls: active means hit-call score of the fitted dose curve at least 0.9, where 1 is the maximum; inactive means score below 0.9.
Outcomes: active, inactive

INSERT INTO measurements (chemical_string, label_value) VALUES
  ('COC(=O)[C@H]1[C@H]2C[C@@H]3c4[nH]c5cc(OC)ccc5c4CCN3C[C@H]2C[C@@H](OC(=O)c2cc(OC)c(OC)c(OC)c2)[C@@H]1OC', 'active'),
  ('CCN(CC)CCOc1ccc(C(=C(Cl)c2ccccc2)c2ccccc2)cc1', 'active'),
  ('CC(C)OC(=O)C(C)(C)Oc1ccc(C(=O)c2ccc(Cl)cc2)cc1', 'inactive'),
  ('Nc1nc(Cl)nc2c1ncn2[C@H]1C[C@H](O)[C@@H](CO)O1', 'inactive');
